The measurements presented in this section are drawn from PubChem BioAssay AID651704.

target_of_assay: Protein AF-9 (Homo sapiens)
assay_text: MLL-AF4/AF9 protein interaction blockers – biochemical, AlphaScreen, biotin-AF4 peptide, FLAG-AF9, single point, primary screen (AID 651704);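 further: 0% = plate neutral control median and 100% = total signal loss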
measurement_context: biotin-AF4 peptide binding to FLAG-AF9, at 10 µM
Hit rate of the full screen: of about 350,000 compounds, about 1,600 (0.46%) were called active.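 How the source made its calls: active means every replicate reaching a set inhibition limit, whatever the replicate mean (cut at about 25% in these data); inconclusive means mean inhibition reaches that limit but some replicates miss it; inactive means the rest.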 This excerpt belongs to a sample that is enriched for actives.
Allowed answers: active, inactive

Before answering, review these 9 worked examples.
CCCNC(=O)N1C[C@H](C)[C@@H](OC)CN(C)C(=O)c2ccc(NC(=O)CC)cc2OC[C@@H]1C: inactive
CCC(=O)N1C[C@H](C)[C@H](OC)CN(C)C(=O)c2cc(NC(=O)Nc3cccc(F)c3)ccc2OC[C@@H]1C: inactive
COc1ccc(NC(=S)NCC2CCN(c3ccc(OC)cc3)C2)cc1 (stereo not given): active
COc1ccc(N2CCC(CNC(=S)Nc3c(C)cccc3C)C2)cc1 (stereo not given): inactive
COC(=O)c1c(C)oc(C)c1S(=O)(=O)NCc1ccc(Cl)cc1: active
C[n+]1ccc(/C=C/c2c[nH]c3ccccc23)cc1: inactive
COc1ccccc1-c1cc(NC(C)=O)c2ncc(-c3ccc(F)cc3)n2c1: inactive
COc1ccc2c3c(n(C)c2c1)[C@@H](CO)N(C(=O)Nc1cccc(F)c1)CC31CCN(Cc2nccs2)CC1: active
CSC(=S)N/N=C/c1c[nH]c2ccccc12: active

Now examine the next entry.
Request: For this compound, state the assay outcome: COc1ccc2c3c(n(C)c2c1)[C@@H](CO)N(C(C)=O)CC31CCN(Cc2nccs2)CC1
Response: inactive

====

target_of_assay: Protein AF-9 (Homo sapiens)
assay_text: MLL-AF4/AF9 protein interaction blockers – biochemical, AlphaScreen, biotin-AF4 peptide, FLAG-AF9, single point, primary screen (AID 651704);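 further: 0% = plate neutral control median and 100% = total signal loss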
measurement_context: biotin-AF4 peptide binding to FLAG-AF9, at 10 µM, active compounds read high
The whole screen tested about 350,000 compounds, of which about 1,600 (0.46%) were called active. This excerpt belongs to a sample that is enriched for actives.
Recorded inhibition for the following molecules
Lab book: enter the figure in %, no units written.

Recorded results for 5 molecules are shown here.
O=C(NCCNc1ccccc1[N+](=O)[O-])c1ccccc1F: 0.524
C[C@@H]1CCCCO[C@H](CN(C)Cc2ccc(C(F)(F)F)cc2)[C@H](C)CN([C@@H](C)CO)C(=O)c2cc(N(C)C)ccc2O1: 29.4
Cc1ccc(S(=O)(=O)N2C[C@@H](O)COC[C@@H]3O[C@H](CC(=O)NCc4ccc(Cl)c(Cl)c4)CC[C@H]32)cc1: 0.126
Cc1ccc(S(=O)(=O)N2C[C@H](O)COC[C@@H]3O[C@@H](CC(=O)NCC4CCCCC4)CC[C@H]32)cc1: 27
CCNC(=O)C[C@@H]1CC[C@@H]2[C@H](COC[C@H](O)CN2S(=O)(=O)c2ccc(Oc3ccccc3)cc2)O1: -1.5

Per the record, O=C(C[C@@H]1CC[C@@H]2[C@H](COC[C@@H](O)CN2S(=O)(=O)c2ccccc2)O1)NCC1CCCCC1 has inhibition of 33.9

Per the record, O=C(Nc1nnc(COc2ccccc2)s1)Nc1ccccc1F has inhibition of 36

Per the record, O=C(C1CCCC1)N1CC(=O)N2[C@H](C1)[C@@H](c1ccc(-c3cccnc3)cc1)[C@@H]2CO has inhibition of -2.09

Per the record, COc1ccccc1N(CC(=O)Nc1ccccc1C(=O)N1CCCC1)S(C)(=O)=O has inhibition of 50.9

Per the record, O=[N+]([O-])c1ccccc1Nc1ccc(O)cc1 has inhibition of 28.1

Per the record, C[C@@H]1CN([C@H](C)CO)C(=O)Cc2cc(N(C)C)ccc2O[C@@H]1CN(C)Cc1ccccc1 has inhibition of 3.48

Per the record, COc1ccc([N+](=O)[O-])cc1N(CC(=O)Nc1ccccc1C(=O)N1CCOCC1)S(C)(=O)=O has inhibition of 1.49

Per the record, CCC(=O)N1CC2(C1)CN(Cc1cc(F)ccc1F)[C@@H](CO)c1[nH]c3cc(OC)ccc3c12 has inhibition of -4.95

Per the record, COc1ccc2c3c(n(C)c2c1)[C@@H](CO)N(Cc1ccncc1)CC31CN(C(=O)C2CCCCC2)C1 has inhibition of -2.52

Per the record, CC=Cc1ccc2n(c1=O)C[C@H]1[C@H](CO)[C@@H](C(=O)NC3CCCC3)[C@@H]2N1C(=O)c1cnccn1 (mixture of isomers) has inhibition of -3.71

Per the record, CO[C@@H]1CN(C)C(=O)c2ccc(NC(=O)C3CC3)cc2OC[C@H](C)N(C(=O)c2ccccc2)C[C@@H]1C has inhibition of -0.663

Per the record, O=C(CC1CC1)Nc1ccc2c(c1)[C@@H]1C[C@@H](CC(=O)NC3CCCCC3)O[C@H](CO)[C@@H]1O2 has inhibition of 0.025
